Data origin, for the record: PubChem BioAssay (NCATS)

Assay: Cell Viability - LYMP2-006 (AID 978);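 also: cells exposed to compound for 24 hours; nearly all actives have a fitted effect of over 60% in size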
Settings: LYMP2-006 lymphoblastoid cell viability, qHTS; series mostly up to 92.2 µM
Results filed as inconclusive are left out. Calls of active or inactive are those of the source. Calls follow the shape of the dose curve; as a rule, active = well fitted cell-killing curve with a large enough effect; inconclusive = small, poorly fitted or top-dose-only effect; inactive = flat fitted curve, though single readings scatter.
A correct response names exactly one class from active, inactive

Some solved entries appear below for comparison.
[CH3][Hg][Cl] : active
CCCCCCCCn1sccc1=O : active
N#CC(Cl)Cl : active
C#CCO : inactive
CC(C)CC(C)Nc1ccc(Nc2ccccc2)cc1 (stereo not drawn) : active

Ask: Can you look up the reported call for OC(c1ccc(Cl)cc1)(c1ccc(Cl)cc1)C(Cl)(Cl)Cl for me?
Reply: inactive

Ask: What about CN(C)c1ccc(N=O)cc1 ?
Reply: active

Ask: What about C=CC(=O)OCC(CO)(COC(=O)C=C)COC(=O)C=C ?
Reply: active
